Data credit: the supplement of paper PMC7156485

system: HCC1569; assay: cell number relative to DMSO (% of DMSO); higher = more cells (less growth inhibition / toxicity); conditions: concentration: 10 µM; 24 h;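 also: TDF denotes transformed human dermal fibroblasts of mesenchymal origin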
outcome measure: cell number
Provide a numeric answer; units are not to be included.

Ask: Entry under review: "CC(C)N=c1cc2n(-c3ccc(Cl)cc3)c3ccccc3nc-2cc1Nc1ccc(Cl)cc1" . Reported cell number?
Result: 89.6

Continuing:
Ask: Entry under review: CC1CCC(C(C)(C)O)CC2=C1CCC2C (single isomer, unassigned; (-)) [(-)-Guaiol] . Reported cell number?
Result: 99.2

Ask: Entry under review: CCCCCCCCCCCCCC=CC(O)C(CO)NC(=O)CCCCCCC (stereo not drawn) [C8 Ceramide] . Reported cell number?
Result: 102

Ask: Entry under review: O=Cc1c2[nH]c3ccccc3c2cc2[nH]c3ccccc3c12 [6-Formylindolo [3,2-B] carbazole] . Reported cell number?
Result: 101

Ask: Entry under review: "CCCC(=O)NCCc1c2n(c3ccc(OC)cc13)Cc1ccccc1-2" . Reported cell number?
Result: 92.4

Ask: Entry under review: COc1ccc(C=Cc2cc(O)cc(OC3OC(CO)C(O)C(O)C3O)c2)cc1O (stereo not drawn) [Rhapontin] . Reported cell number?
Result: 99.2

Ask: Entry under review: "CC(C)(C)n1nc(-c2ccc(Cl)cc2)c2c(N)ncnc21" . Reported cell number?
Result: 67.2

Ask: Entry under review: CC(C)Cn1c(=O)n(C)c(=O)c2[nH]cnc21 [3-Isobutyl-1-methylxanthine] . Reported cell number?
Result: 114
